target system: TJP1_3, Q07157
Sequence (Q07157 416-512): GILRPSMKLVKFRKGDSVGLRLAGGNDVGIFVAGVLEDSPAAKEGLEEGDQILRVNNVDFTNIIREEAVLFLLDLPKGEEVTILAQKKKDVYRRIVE
assay comment: holdup assay
Parameters: key: below the threshold = too weak to quantify, mostly under pKd 3.1 to 4
condition label: plain residues with an end cap or a label only (N-terminal biotin on a linker: ttds)
measurement kind: pKd

Some entries whose results are on file:
# binder, reported
rows = [
    ("FHPLGADSQV [SLC2A1, P11166]", "below the threshold"),
    ("QRQARSETLV [HPV59-E6, Q81964]", "below the threshold"),
    ("RLPKIKETTV [FRMPD4, Q14CM0]", "below the threshold"),
    ("DKDPHSETAL [TMIGD1, Q6UXZ0]", "below the threshold"),
    ("NDPAWDETNL [ARHGEF7, Q14155;Q14155-1]", "below the threshold"),
]

Each binder below has a recorded value; state its pKd.
1. RHTTSTETAV [HPV30-E6, P36809]
2. SKPTRRETEV [HPV35-E6, P27228]
3. KKYVDAETSL [SLC4A7, Q9Y6M7]
4. RPLPRKVSQL [DOCK4, Q8N1I0]
5. EMDRRPATVV [PLCB4, Q15147]

["below the threshold", "below the threshold", "below the threshold", "below the threshold", "below the threshold"]

Each binder below has a recorded value; state its pKd.
1. PRVKPQRSKV [PPP1R13L, Q8WUF5]
2. SGSRPSATVV [HPV73-E6, Q82005]

below the threshold
below the threshold

Each binder below has a recorded value; state its pKd.
1. PVRVCEETSL [OTULIN, Q96BN8]
2. SSLQSLETSV [ATP2B4, P23634]
3. EVVHTPETSV [SLC16A3, O15427]
4. RLQRRRETQV [HPV18-E6, P06463]
5. VDFPPKESSL [ACVR2A, P27037]

["below the threshold", "below the threshold", "below the threshold", "below the threshold", "below the threshold"]
